Target: T1, shFcRn (soluble human FcRn) (human, UniProt P55899 24-297; P61769 21-119)
T1 construct: extracellular domain; Printed only as 'soluble human FcRn'; also called hFcRn (immobilized on a chip)
T1 sequence (P55899 24-297 limits assumed, chain 1 of 2): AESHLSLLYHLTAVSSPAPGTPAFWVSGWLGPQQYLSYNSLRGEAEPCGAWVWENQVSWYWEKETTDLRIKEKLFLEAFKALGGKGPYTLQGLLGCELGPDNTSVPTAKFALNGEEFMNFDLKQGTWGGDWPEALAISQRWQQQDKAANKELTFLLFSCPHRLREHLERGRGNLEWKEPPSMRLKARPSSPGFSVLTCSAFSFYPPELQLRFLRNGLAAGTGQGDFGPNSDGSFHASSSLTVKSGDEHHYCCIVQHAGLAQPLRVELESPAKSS
T1 sequence (P61769 21-119 limits assumed, chain 2 of 2): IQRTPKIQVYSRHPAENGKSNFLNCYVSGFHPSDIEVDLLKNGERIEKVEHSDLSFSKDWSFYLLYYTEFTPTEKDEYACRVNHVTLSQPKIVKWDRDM
Assay: SPR, shFcRn immobilized on chip, antibody as analyte, pH 6.0;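 further: kinetics fitted with a 1:1 Langmuir model, association 200 s and dissociation 600 s, samples diluted in PBST, double-referenced signals, values averaged across three shFcRn-coated cells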
Property: Kd (nM)
Reply with just the number (in nM).

Below, 2 binders whose answers are already recorded.
>>> endpoint_result("HL161AN (antibody, human IgG1, V domains shown, also called HL161AN RS) VL: SYVLTQPPSVSVAPGQTARITCGGNNIGSTSVHWYQQKPGQAPVLVVHDDSDRPSGIPERFSGSNSGNTATLTISRVEAGDEADYYCQVRDSSSDHVIFGGGTKLTVLGQPKAAPSVTL VH: EVQLLESGGGLVQPGGSLRLSCAASEFTFGSCVMTWVRQAPGKGLEWVSVISGSGGSTYYADSVKGRFTISRDNSKNTLYLQMNSLRAEDTAVYYCAKTPWWLRSPFFDYWGQGTLVTVSS")
0.116
>>> endpoint_result("HL161AN variant No. 20 (LC:N25Q, HC:C32Y Q82S) (antibody, human IgG1, V domains shown, Variable domains only) VL: SYVLTQPPSVSVAPGQTARITCGGQNIGSTSVHWYQQKPGQAPVLVVHDDSDRPSGIPERFSGSNSGNTATLTISRVEAGDEADYYCQVRDSSSDHVIFGGGTKLTVLGQPKAAPSVTL VH: EVQLLESGGGLVQPGGSLRLSCAASEFTFGSYVMTWVRQAPGKGLEWVSVISGSGGSTYYADSVKGRFTISRDNSKNTLYLSMNSLRAEDTAVYYCAKTPWWLRSPFFDYWGQGTLVTVSS")
0.2

Next, consider the following binder.
Exercise: # return recorded Kd for input HL161AN variant No. 14 (LC:N25Q, HC:Q82S) (antibody, human IgG1, V domains shown, Variable domains only) VL: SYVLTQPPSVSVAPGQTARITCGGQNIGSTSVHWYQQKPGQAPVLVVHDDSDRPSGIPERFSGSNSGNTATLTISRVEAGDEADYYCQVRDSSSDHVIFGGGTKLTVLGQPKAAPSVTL VH: EVQLLESGGGLVQPGGSLRLSCAASEFTFGSCVMTWVRQAPGKGLEWVSVISGSGGSTYYADSVKGRFTISRDNSKNTLYLSMNSLRAEDTAVYYCAKTPWWLRSPFFDYWGQGTLVTVSS
Solution: 0.208
